# credit: PubChem BioAssay AID720582

targetSystem: Disintegrin and metalloproteinase domain-containing protein 10 (Homo sapiens)
runDescription: blockers of ADAM10 peptide cleavage – biochemical, QFRET, HTS, primary screen (AID 720582);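 also: 0% = DMSO wells while the 100% control is not disclosed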
settings: recombinant ADAM10, EDANS/DABCYL FRET peptide cleavage, 3 h; at 7 µM; active compounds read high
In all, about 370,000 compounds went through this assay and about 2,300 (0.62%) were called active. For the sample, actives were picked, then their nearest neighbours and some compounds at random.
inhibition overview

# compound, endpointUnit, inhibition
records = [
    ("O=C1CC(c2ccc3c(c2)OCO3)N=C2N(CC3CC3)C/C(=C/c3ccccc3)N12 (stereo not given)", "%", -2.63),
    ("Cc1c(C=O)c2ccccc2n1CCOc1ccccc1", "%", 10.4),
    ("C=CCN(Cc1ccc2c(c1)OCO2)C(C#CC1CC1)C(C)(C)C (stereo not given)", "%", -9.94),
    ("COc1cccc(NC(=O)C2C(c3ccccc3)C2(Cl)Cl)c1 (stereo not given)", "%", 19.8),
    ("COc1cc(NC(=O)c2cc(-c3ccc(F)cc3OC(C)C)n[nH]2)cc(OC)c1OC", "%", 9.02),
    ("O=C(NCCc1c[nH]c2ccc(Cl)cc12)c1ccc([N+](=O)[O-])cc1", "%", -1.95),
    ("CC1(C)C=Cc2c(ccc3c2OC[C@@H](c2ccc(O)cc2O)C3)O1", "%", 26.4),
    ("COc1cc(NC(=O)COC(=O)c2cnc(C)cn2)c(C)cc1[N+](=O)[O-]", "%", 2.74),
    ("CCOC(=O)[C@]12CCCC3=C1N(CCC3)C(=O)[C@@H](CC(=O)NCc1cccs1)C2", "%", -1.3),
    ("O=C(O)COc1ccc(/C=N/O)cc1Br", "%", 3.83),
    ("CN1C(=O)C(CC(=O)Nc2ccccc2)S/C1=N/c1nccs1 (stereo not given)", "%", 8.04),
    ("COc1cccc(NC(=O)C2c3cc(OC)c(OC)cc3C(=O)N(C)C2c2cccnc2)c1 (stereo not given)", "%", -5.09),
    ("O=C(CN1CCCc2ccccc21)NCc1ccc(F)cc1", "%", 1.16),
    ("COc1cccc(NC(=O)C/C(C)=N/NC(=O)C2CCCCC2)c1", "%", 15.3),
    ("COC(=O)[C@]12C[C@H](CC(=O)NCc3cccs3)C(=O)N(CCc3ccc(OC)c(OC)c3)C1=C[C@H](C(C)C)O[C@@H]2C1CC1", "%", -6.09),
]

---

targetSystem: Disintegrin and metalloproteinase domain-containing protein 10 (Homo sapiens) (UniProt O14672)
Sequence (O14672 214-748 limits assumed): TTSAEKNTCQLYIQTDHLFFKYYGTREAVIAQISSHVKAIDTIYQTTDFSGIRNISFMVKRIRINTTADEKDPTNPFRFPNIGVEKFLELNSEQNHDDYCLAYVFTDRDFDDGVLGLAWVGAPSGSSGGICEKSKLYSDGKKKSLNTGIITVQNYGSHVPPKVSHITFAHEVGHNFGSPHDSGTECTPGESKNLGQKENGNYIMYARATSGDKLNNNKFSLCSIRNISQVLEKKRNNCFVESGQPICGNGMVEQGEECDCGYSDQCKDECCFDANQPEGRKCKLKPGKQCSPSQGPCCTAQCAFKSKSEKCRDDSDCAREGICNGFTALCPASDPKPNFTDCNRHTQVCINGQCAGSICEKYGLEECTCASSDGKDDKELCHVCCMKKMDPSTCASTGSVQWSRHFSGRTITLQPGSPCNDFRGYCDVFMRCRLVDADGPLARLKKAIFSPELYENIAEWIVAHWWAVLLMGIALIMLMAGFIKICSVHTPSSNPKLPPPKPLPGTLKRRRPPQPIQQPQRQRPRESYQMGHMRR
runDescription: blockers of ADAM10 peptide cleavage – biochemical, QFRET, HTS, primary screen (AID 720582);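 also: 0% = DMSO wells while the 100% control is not disclosed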
settings: recombinant ADAM10, EDANS/DABCYL FRET peptide cleavage, 3 h; at 7 µM; active compounds read high
Out of some 370,000 compounds screened, about 2,300 (0.62%) were called active. The sample as a whole holds a higher share of actives than the screen did.
inhibition overview

# molecule, inhibition [%]
measured = [
    ("O=C(NC1CCC1)c1ccc(C#CC2CC2)cn1", -7.03),
    ("Cc1cc(C)cc(NC(=S)NCCc2c[nH]c3ccccc23)c1", 28.5),
    ("O=C(COC(=O)Cc1c[nH]c2ccccc12)NCCc1ccccc1", 7.22),
    ("COC(=O)[C@H](C(C)C)N(CCCc1cn(Cc2ccccc2)nn1)S(=O)(=O)c1ccc(F)cc1Br", 2.42),
    ("CC(=O)OC12CCCN(C1)/C(=C/c1ccncc1)C2 (stereo unspecified)", -16.8),
    ("CCC(CO)Nc1cccc2c1S(=O)(=O)N(Cc1cn(Cc3ccccc3C(F)(F)F)nn1)Cc1ccccc1O2 (stereo unspecified)", -15.3),
]

---

targetSystem: Disintegrin and metalloproteinase domain-containing protein 10 (Homo sapiens) (UniProt O14672)
runDescription: blockers of ADAM10 peptide cleavage – biochemical, QFRET, HTS, primary screen (AID 720582);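 also: 0% = DMSO wells while the 100% control is not disclosed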
settings: recombinant ADAM10, EDANS/DABCYL FRET peptide cleavage, 3 h; at 7 µM
About 2,300 (0.62%) of roughly 370,000 compounds were called active.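 The calls were made as follows: active = inhibition above a per-campaign cutoff equal to the mean of compounds falling between control-based bounds plus 3 SD (cut at about 20% in these data); inactive = the rest.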 For the sample, actives were picked, then their nearest neighbours and some compounds at random.
Outcomes: 1 (active), 0 (inactive)

# compound, className
data = [
    ("CCOc1ccc(Br)cc1S(=O)(=O)Nc1ccc(C(=O)OC(C)C(=O)N(C)c2ccccc2)cc1 (stereo not drawn)", 1),
    ("Cc1ccc(Cn2cc(CN3[C@@H](CC(C)C)COc4ccc(Cl)cc4S3(=O)=O)nn2)cc1", 0),
    ("C[C@@H](NC(=O)c1nc[nH]c1C(=O)N1CCN(C(=O)OC(C)(C)C)CC1)c1ccccc1", 0),
    ("CN(C)c1ccc(NC(=O)NC2CCCCN(Cc3ccc(Cl)cc3)C2=O)cc1 (stereo not drawn)", 0),
    ("Clc1ccc(-n2c(SC/C=C/c3ccccc3)nnc2-c2ccco2)cc1", 0),
    ("CC(C)(C)OC(=O)CNC(=O)c1[nH]cnc1C(=O)N[C@@H](Cc1ccccc1)C(=O)OCc1ccccc1", 1),
    ("COc1ccc(NS(=O)(=O)c2ccc(C)c(C(=O)NNC(=O)c3csc(N4CCOCC4)n3)c2)cc1", 1),
    ("C=CCN(C(=O)[C@@H](CCCC)[C@@H](O)c1ccc(Cl)cc1)c1ccccc1", 0),
    ("CNC(=O)c1[nH]cnc1C(=O)N[C@@H](CC(C)C)C(=O)OC(C)(C)C", 0),
    ("CCOc1ccc(Br)cc1S(=O)(=O)Nc1ccc(S(=O)(=O)Nc2cc(C)on2)cc1", 0),
    ("COc1cc(/C=N/O)cc(Br)c1OS(=O)(=O)c1ccc(C)cc1", 1),
    ("CN(CCc1ccccc1)C(=O)Cn1nc(-c2ccccc2)ccc1=O", 0),
    ("CC(C)(C)OC(=O)N1CCC(NC(=O)c2[nH]cnc2C(=O)N[C@@H](Cc2ccccc2)C(=O)OCc2ccccc2)CC1", 1),
]

---

targetSystem: Disintegrin and metalloproteinase domain-containing protein 10 (Homo sapiens)
runDescription: blockers of ADAM10 peptide cleavage – biochemical, QFRET, HTS, primary screen (AID 720582);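 also: 0% = DMSO wells while the 100% control is not disclosed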
settings: recombinant ADAM10, EDANS/DABCYL FRET peptide cleavage, 3 h; at 7 µM; active compounds read high
Screen size: about 370,000 compounds; about 2,300 (0.62%) were called active. The entries come from a sample that favours actives as a whole.

# compound, inhibition (%)
rows = [
    ("S=c1[nH]nc(CSCc2ccc(Cl)cc2Cl)n1-c1ccccc1", 15.5),
    ("C=CCOc1ccc(/C=N/n2cncn2)cc1OC", -13.5),
    ("COc1ccc(S(=O)(=O)N2CCN(C(C)C(=O)Nc3ccc(C(C)C)cc3)CC2)cc1 (centres undefined)", 26.6),
    ("Cc1ccc(/C=N/NC(=O)CSc2nc3ccccc3o2)cc1", 22.1),
    ("C=CC[C@@H](Cc1ccc(F)cc1)C(=O)OC[C@H]1CCCN1C(=O)[C@H](CC=C)CC(=O)N(CCO)Cc1ccccc1", -2.18),
    ("Oc1ccc(/C=C/c2c(F)cccc2F)c2cccnc12", 5.02),
    ("CC(=O)N1CCCN(C2=Nc3ccccc3Sc3ccccc32)CC1", 1.32),
    ("O=C(NC(Cc1c[nH]c2ccccc12)C(=O)N/N=C/c1ccc(Br)cc1)c1cccs1 (centres undefined)", 28.1),
    ("O=C(CSc1nc2c(c(=O)[nH]1)CCCC2)N1CCCCC1", 3.78),
    ("Cc1cccc(CCNS(=O)(=O)c2ccc(S(=O)(=O)NC3CCCC3)cc2)c1", 27.1),
    ("COc1cc(C2C(C(=O)c3ccco3)=C(O)C(=O)N2c2cc(C)on2)ccc1OCc1ccccc1 (centres undefined)", -2.12),
    ("COc1ccc(N2CCN(CCNS(=O)(=O)c3ccc(Cl)s3)CC2)cc1", 0.29),
    ("CC(C)c1ccc(S(=O)(=O)N2CCN(C(C)C(=O)NC3CCCC3)CC2)cc1 (centres undefined)", -11.6),
    ("CCc1ccccc1NC(=O)CSc1nnc(-c2cccs2)o1", -1.28),
    ("O=C(CSc1nc2ccccc2s1)N=Nc1c(O)[nH]c2ccccc12", 7.8),
    ("O=C(c1ccncc1)N1CC[C@H]2[C@H](CCCN2Cc2ccc(F)cc2)C1", -25.2),
    ("COc1ccc([C@H]2CC(=O)C=C(c3ccc(OC(F)(F)F)cc3)C2)cc1OC", 21),
    ("Cc1ccc(NC(=S)NNC(=O)CSc2nnc(SCc3ccccc3Cl)s2)cc1", 17.8),
    ("Cc1ccc(S(=O)(=O)N2CCC(N3CCCCCC3)CC2)cc1", 3.62),
    ("Cc1ccc(Cn2cc(COC(=O)N(C)Cc3ccccc3)nn2)cc1", -0.56),
    ("Cc1[nH]c2ccccc2c1C(=O)COC(=O)c1c(-c2ccccc2)noc1C", 24.7),
    ("COc1cc(/C=N/n2c(C)n[nH]c2=S)ccc1OCc1ccccc1", 20.3),
    ("C=CC[C@H](CC(=O)N(CCO)Cc1ccccc1)C(=O)N[C@@H](COC(=O)[C@@H](CC=C)Cc1ccc(F)cc1)Cc1ccccc1", 28),
    ("CNC(=S)N/N=C/c1ccc(OCc2ccccc2)c(Br)c1", -17),
    ("O=S(=O)(c1cccc(S(=O)(=O)N2CCC(n3nnc4ccccc43)CC2)c1)N1CCCCC1", 20.5),
    ("O=S1(=O)c2c(NCc3ccco3)cccc2Oc2ccccc2CN1Cc1cn(Cc2cccc(C(F)(F)F)c2)nn1", -9.48),
    ("CC1(Cc2cccc(C#N)c2)C(=O)Nc2ccc(-c3cccc(C(F)(F)F)c3)cc21 (centres undefined)", 33.6),
    ("O=C1CC[C@@]23CCCN2C(=O)CCC[C@H]3[C@H]1Cc1ccccc1", -4.62),
    ("O=C(N[C@@H](Cc1c[nH]c2ccccc12)C(=O)O)OCC1c2ccccc2-c2ccccc21", -1.67),
    ("C=CCC[C@@H](Cc1ccc(F)cc1)C(=O)OC[C@H](Cc1c[nH]c2ccccc12)NC(=O)[C@@H](CC=C)CC(=O)N(CCO)Cc1ccccc1", 41.8),
    ("Cc1nc2ccc(C(=O)N3CCN(C(=O)C(C)(C)C)CC3)cc2n1C1CCCC1", 1.94),
    ("Cc1ccc(C(=O)C2CCN(CC(=O)NCCC(C)C)CC2)cc1", -6.22),
    ("COc1ccc(C(=O)COC(=O)c2c(C)noc2C)cc1Cl", 3.87),
    ("O=C(CSCc1ccc(Br)cc1)Nc1ccc(S(=O)(=O)N2CCCCCC2)cc1", 24.1),
]
